- Test system: p38-alpha
- Construct: gene MAPK14
- recorded-conditions: concentration: 1 μM, replicates: in singlicate; n = 1;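 further: KINOMEscan kinase panel screen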
We begin with a simple list: items and their reported %Inh.
Give the number; % is assumed, so skip it.

A selection of reference data follows.
{"molecule": "Cc1ccc(NC(=O)c2cccc(N3CCCCC3)c2)cc1-c1ccc(C(=O)NCC2CC2)cc1", "study-system": "p38-alpha", "measurement-label": "%Inh", "recorded-measurement": 99.9}
{"molecule": "Cn1cc(-c2ccc3c(c2)CCN3C(=O)Cc2cc(F)cc(C(F)(F)F)c2)c2c(N)ncnc21", "study-system": "p38-alpha", "measurement-label": "%Inh", "recorded-measurement": 0}
{"molecule": "COc1cccc(C2=C(Nc3cccc(O)c3)C(=O)NC2=O)c1", "study-system": "p38-alpha", "measurement-label": "%Inh", "recorded-measurement": 0}
{"molecule": "CC(C)NCC(Cc1ccccc1)NC(=O)c1cc(Br)c(-c2ccnc3[nH]ccc23)s1.Cl.Cl (centres unmarked)", "study-system": "p38-alpha", "measurement-label": "%Inh", "recorded-measurement": 0}

What the record says about Nc1cccc(-c2ccc3c(N)n[nH]c3c2)c1 : %Inh is 6

====

We begin with a simple list: items and their reported %Inh.
- Test system: JAK1(JH1domain-catalytic)
- recorded-conditions: concentration: 1 μM, replicates: in singlicate; n = 1
The reply should read as a number followed by its unit.

A selection of reference data follows.
{"compound": "O=C(O)C(F)(F)F.O=c1[nH]ccc2nc(N[C@@H]3CCNC3)nc(Nc3cc(Cl)cc(Cl)c3)c12", "%Inh": "93.5%"}
{"compound": "Nc1ncc(-c2cn[nH]c2)c2scc(-c3ccc4c(c3)CCN4C(=O)Cc3ccccc3)c12", "%Inh": "2%"}
{"compound": "COC(=O)Nc1nc2ccc(Oc3ccc(CC(=O)Nc4cc(C(F)(F)F)ccc4F)cc3)cc2[nH]1", "%Inh": "6%"}
{"compound": "CNc1nccc(-c2ccc3c(N)n[nH]c3c2)n1", "%Inh": "0%"}
{"compound": "CN(c1ccc(F)c(NC(=O)c2cccc(OC(C)(C)C#N)c2Cl)c1)c1ccc2nc(NC(=O)C3CC3)sc2n1", "%Inh": "10%"}
{"compound": "COc1ccc(C)c(Nc2ccnc(Nc3ccc(-c4cnc[nH]4)cc3)n2)c1.Cl", "%Inh": "100%"}
{"compound": "Cn1cc(-c2cnc(N)c3c(-c4ccc5c(c4)CCN5C(=O)Cc4ccccc4)csc23)cn1", "%Inh": "0%"}
{"compound": "CN(C)CCOc1ccc(-c2cc(-c3ccc(Cl)c(O)c3)c(-c3ccncc3)[nH]2)cc1.Cl.Cl", "%Inh": "20%"}

What the record says about Nc1ncnc2scc(-c3ccc(NC(=O)Cc4cc(F)ccc4F)cc3)c12.O=C(O)C(F)(F)F : %Inh is 0%

What the record says about Cl.Cl.NCC(NC(=O)c1cc(-c2cccnc2)c(-c2ccnc3[nH]ccc23)s1)c1ccccc1 (centres unmarked) : %Inh is 15%

What the record says about CCNc1nccc(-c2c(-c3ccc(F)cc3)ncn2C2CCN(C)CC2)n1 : %Inh is 0%

What the record says about CN(C)c1ncnc2nc[nH]c12 : %Inh is 0%

What the record says about CC(=O)Nc1cn2nc(Oc3cccc(NC(=O)c4cccc(C(F)(F)F)c4)c3)ccc2n1 : %Inh is 32%

What the record says about CC(C)(C)c1ccc(C(=O)Nc2cn3cc(-n4ccnc4)ccc3n2)cc1 : %Inh is 11%

What the record says about Cc1ccc(O)cc1Nc1ccnc2cc(-c3ccc(CN4CCCCC4)o3)ccc12 : %Inh is 1%

What the record says about Cc1ccc(C)c(NC(=O)Nc2ccc(C)c(-c3ccc(C(=O)Nc4ccncc4)cc3)c2)c1 : %Inh is 0%

What the record says about Cc1cc(-c2c(-c3ccc(F)cc3)ncn2CCCN2CCOCC2)nc(N)n1 : %Inh is 0%

====

- Tested on: MST1R
- recorded-conditions: concentration: 1 μM, replicates: in singlicate; n = 1
We begin with a simple list: items and their reported %Inh.
The reply should read as a number followed by its unit.

What the record says about O=C1NC(=O)C(c2ccccc2Cl)=C1Nc1cccc(Cl)c1 : %Inh is 0%

====

- Test system: HPK1
- recorded-conditions: concentration: 1 μM, replicates: in singlicate; n = 1
Mark Not fulfilled for %Inh values under 60%, and Fulfilled for everything at or above.

{"compound": "CN(C)CCNS(=O)(=O)c1ccc(-c2ccnc3[nH]ccc23)cc1 [GSK977620]", "class-assignment": "Not fulfilled"}

Ask: Check if %Inh >= 60% (inclusive). Item: Cl.Cl.NC(CNC(=O)c1cc(Br)c(-c2ccnc3[nH]ccc23)s1)c1ccccc1 (stereo not shown) [GSK1322949]
Result: Fulfilled

Ask: Check if %Inh >= 60% (inclusive). Item: Cn1cc(-c2cnc(N)c3c(-c4ccc5c(c4)CCN5C(=O)Cc4ccccc4)csc23)cn1 [GSK2593074]
Result: Fulfilled

Ask: Check if %Inh >= 60% (inclusive). Item: CSc1ccc(NC2=C(c3ccc(Cl)cc3)C(=O)NC2=O)cc1 [SB-317658]
Result: Not fulfilled

Ask: Check if %Inh >= 60% (inclusive). Item: CCOc1nccc(-c2c(-c3ccc(F)cc3)ncn2C2CCNCC2)n1 [SB-249175]
Result: Not fulfilled

Ask: Check if %Inh >= 60% (inclusive). Item: Cc1ccc(NC(=O)c2cccc(N3CCCCC3)c2)cc1-c1ccc(C(=O)NCC2CC2)cc1 [GSK1917008]
Result: Not fulfilled

Ask: Check if %Inh >= 60% (inclusive). Item: CNc1nccc(-c2ccc3c(N)n[nH]c3c2)n1 [GSK2206003]
Result: Not fulfilled

Ask: Check if %Inh >= 60% (inclusive). Item: N#CC1(c2cccc(C(=O)Nc3cccc(Oc4ccc5nc(NC(=O)C6CC6)sc5n4)c3)c2)CC1
Result: Not fulfilled

Ask: Check if %Inh >= 60% (inclusive). Item: COc1cc(Nc2nccc(N3CCC(NC(=O)Nc4ccc5c(c4)OCO5)C3)n2)cc(OC)c1OC (stereo not shown) [GSK1379766]
Result: Fulfilled

====

- Tested on: MAPKAPK5
- recorded-conditions: concentration: 1 μM, replicates: in singlicate; n = 1
measurement-label: %Inh (%)
Give the number; % is assumed, so skip it.

{"compound": "CN(c1ccc(NC(=O)Nc2cccc(Cl)c2)cc1)c1ccnc(N)n1.Cl [GW830707]", "study-system": "MAPKAPK5", "units-text": "%", "%Inh": 0}
{"compound": "Cc1ccc(O)cc1Nc1ccnc2cc(-c3ccc(CN4CCCCC4)o3)ccc12 [GW557777]", "study-system": "MAPKAPK5", "units-text": "%", "%Inh": 0}
{"compound": "CCNC(=O)/C=C/c1n[nH]c2cc(Sc3ccccc3C(=O)NC)ccc12", "study-system": "MAPKAPK5", "units-text": "%", "%Inh": 18}
{"compound": "COc1cccc2c(-c3ccncc3)c(-c3ccc(F)cc3)nn12 [GW468513]", "study-system": "MAPKAPK5", "units-text": "%", "%Inh": 0}
{"compound": "Cc1cccc(Nc2nc(NCCN)ncc2C(N)=O)c1 [GSK1292139]", "study-system": "MAPKAPK5", "units-text": "%", "%Inh": 44}

What the record says about CC(C)c1nc(-c2cccc(NS(=O)(=O)c3c(F)cccc3F)c2)c(-c2ccnc(Nc3ccc(N4CCOCC4)nc3)n2)s1.Cl [GSK1723980] : %Inh is 0

What the record says about Cc1ccc(-c2ccc3occ(-c4ccc(S(C)=O)cc4)c3c2)nn1 (centres unmarked) : %Inh is 0

What the record says about Cl.N#CCc1ccc(Nc2nccc(Nc3ccc(Oc4ccccc4)cc3)n2)cc1 [GW639905] : %Inh is 0

====

- Tested on: TTK
- recorded-conditions: concentration: 1 μM, replicates: in singlicate; n = 1
measurement-label: %Inh (%)
Give the number; % is assumed, so skip it.

A selection of reference data follows.
{"molecule": "c1ccc(Oc2ccc(Nc3ccnc4cc(-c5ccc(CN6CCCCC6)o5)ccc34)cc2)nc1", "%Inh / %": 28}
{"molecule": "Cn1cc(-c2cnc(N)c3c(-c4ccc5c(c4)CCN5C(=O)Cc4ccccc4)csc23)cn1", "%Inh / %": 7}
{"molecule": "CN(c1ccc(F)c(NC(=O)c2cccc(OC(C)(C)C#N)c2Cl)c1)c1ccc2nc(NC(=O)C3CC3)sc2n1", "%Inh / %": 6}

Entry Cc1ccc(Nc2ccnc(Nc3ccc(C)c(F)c3)n2)cc1O.Cl , TTK data, %Inh value: 0

Entry Cl.O=C(Nc1ccc(Oc2ccc3[nH]c(NC(=O)c4ccco4)nc3c2)cc1)Nc1cc(C(F)(F)F)ccc1F , TTK data, %Inh value: 0

Entry Cc1ccc(NC(=O)c2cccc(N3CCCCC3)c2)cc1-c1ccc(C(=O)NCC2CC2)cc1 , TTK data, %Inh value: 11

Entry Fc1cc(Cl)ccc1Nc1ccnc2cc(-c3ccc(CN4CCSCC4)o3)ccc12 , TTK data, %Inh value: 13

Entry Cc1cccc(Nc2nc(N[C@H]3CCCC[C@H]3N)ncc2C(N)=O)c1.Cl , TTK data, %Inh value: 36

Entry CN(C)CCOc1ccc(-c2cc(-c3ccc(Cl)c(O)c3)c(-c3ccncc3)[nH]2)cc1.Cl.Cl , TTK data, %Inh value: 0

Entry Cl.Cl.NCC(NC(=O)c1cc(-c2cccnc2)c(-c2ccnc3[nH]ccc23)s1)c1ccccc1 (stereo not shown) , TTK data, %Inh value: 4

Entry Nc1ncc(-c2cn[nH]c2)c2scc(-c3ccc4c(c3)CCN4C(=O)Cc3ccccc3)c12 , TTK data, %Inh value: 1
